System: MDA-N
test-summary: NCI tumour cell line growth inhibition, 48 h
# key: entry, value: TGI

Recorded results for 5 compounds are shown here.
> print(dat)
                                   compound  measured.on  value.reported
1              O=C(O)c1ccccc1/C=N/NC1=NCCN1        MDA-N        > 100 µM
2  Cc1c(C)c(C)n(C2OC(CO)C(O)C(O)C2O)c(=S)c1C#N (stereo unspecified)        MDA-N        > 100 µM
3  COC(=O)c1cc2c(cc1CC1Cc3cc4c(cc3C1=O)CCC4)CCC2 (stereo unspecified)        MDA-N        > 100 µM
4  Cc1cc(Cl)cc2c1NC(=O)C2(O)CC(=O)c1ccco1 (stereo unspecified)        MDA-N         22.9 µM
5          O=S(=O)(SC1=NCCN1)c1ccc2ccccc2c1        MDA-N         43.9 µM

Task: Given Nc1nc(I)nc2c1ncn2C1OC(COS(N)(=O)=O)C(O)C1O (stereo unspecified) , respond with its TGI.
Output: 0.0135 µM

Task: State, in one line, measured TGI of `O=C(O)COCC(=O)N(CCOCCN(Cc1ccccc1)C(=O)COCC(=O)O)Cc1ccccc1`
Output: > 100 µM

Task: Quote TGI reported for `O=C(O)CCC(=O)Nc1ccc2ccccc2c1` please.
Output: > 100 µM

Task: Give the measured TGI for `COc1cc2ncnc(Nc3cccc(Cl)c3)c2cc1OC`
Output: 42.6 µM

Task: Give reported TGI value for `CC(=O)Oc1cc(Cl)c(C)c2c1[C@H]1CC[C@]3(C)[C@@H](OC(C)=O)CC[C@H]3[C@@H]1CC2`
Output: > 100 µM

Task: Provide only the value of recorded TGI for `CCOC(=O)c1c(NC(=O)c2cccs2)sc2c1CCC2`
Output: > 100 µM
